Test: Mycobacterium tuberculosis growth inhibition, primary screen (AID 1259343)
Settings: at 10 µM, active compounds read high
In all, about 6,200 compounds went through this assay and about 2,900 (47%) were called active. The set was probably picked from earlier hits. The list shows a part of the results.
Kindly state inhibition for each of the entries shown.
Give bare numbers, in %.

Check out these entries, answers already filled in.
{"compound": "C=CCc1ccc(OCCOc2ccc(F)cc2)c(OC)c1", "inhibition [%]": -4.29}
{"compound": "CCc1ccsc1CNC(=O)c1sccc1Br", "inhibition [%]": 24.1}
{"compound": "CN(Cc1c(F)cccc1Cl)c1cncc(-n2cccn2)n1", "inhibition [%]": 83.7}

State the recorded inhibition for every item in the following list.
1. CCC(C)N=Cc1c(NCc2ccco2)nc2c(C)cccn2c1=O (configuration not stated)
2. CCc1ccc(CNC(=O)c2cncc(Br)c2)s1
3. CCc1ccc(CNC(=O)c2cc(C)sc2C)s1
4. O=C1CCC(=O)N1OCCOc1cccc(Oc2ccccc2)c1

A.
1. 4.74
2. 83.2
3. 54.8
4. 72
